# Tested on: SRS-A induced constriction of the guinea pig ileum
# Run description: Guinea Pig Ileum, In Vitro (SRS-A antagonism)
# Format: cell-based
# Assay context: Cavia porcellus, SRS-A challenge at EC50, Table I, read-out: In vitro G.P. ileum IC50
Readout: IC50 (nM)
One number for each entry, in nM.

Illustrative cases are given below, each with its answer.
# Compound, Measurement target, Measurement
measured = [
    ("CCCc1c(OCCCCC2(C)CC(=O)c3ccc(OCC(=O)O)cc3O2)ccc(C(C)=O)c1O (racemic)", "SRS-A induced constriction of the guinea pig ileum", 5000),
    ("CCCc1c(OCCCCC2(C)CC(=O)c3ccc(OCCCC(=O)O)cc3O2)ccc(C(C)=O)c1O (racemic)", "SRS-A induced constriction of the guinea pig ileum", 3000),
]

Batch: IC50 for all items listed.
1. CCCc1c(OCCCCCCC2(C)CC(=O)c3ccc(OCC(=O)O)c(CCC)c3O2)ccc(C(C)=O)c1O (racemic)
2. CCCc1c(OCCCCC2(C)CC(=O)c3ccc(OCCCC(=O)O)c(CCC)c3O2)ccc(C(C)=O)c1O (racemic)
3. CCCc1c(OCCCCC2CC(=O)c3ccc(OCC(=O)O)c(CCC)c3O2)ccc(C(C)=O)c1O (racemic)

Result:
500
1000
500

Batch: IC50 for all items listed.
1. CCCc1c(OCCCCC2(C)CC(=O)c3ccc(OCC(=O)O)c(CCC)c3O2)ccc(C(C)=O)c1O (racemic)
2. CCCc1c(OCCCCCCC2CC(=O)c3ccc(OCC(=O)O)c(CCC)c3O2)ccc(C(C)=O)c1O (racemic)

Result:
1: 2000; 2: 300

----------
# Tested on: SRS-A induced constriction of the guinea pig ileum
# Run description: Guinea Pig Ileum, In Vitro (SRS-A antagonism)
# Assay type: cell-based
# Assay context: Cavia porcellus, SRS-A challenge at EC50, read-out: IC50 of the standard SRS-A antagonist
Readout: pIC50
Answers are plain numbers, as −log10 of the molar value.

Q: Fill blank: measured pIC50 of the compound CCCc1c(OCC(O)Cc2ccc3c(=O)cc(C(=O)O)oc3c2CCC)ccc(C(C)=O)c1O (stereo not shown) [reference compound] is ____.
Result: 7.46
